- Tested on: Botrytis cinerea
- Experiment description: Agar test (Example 7), Botrytis
- Format: cell-based
- Experimental context: 10 ppm; 5 days at 22° C; control 100
The molecules listed here are annotated with their diameter of the colonies.
Attribute measured: diameter of the colonies (mm)

> print(dat)
                                    molecule   target.of.assay  reported.value
 1  CCCCCS(=O)(=O)c1nnc(C(Cl)(Cl)Cl)s1 [Compound 26]  Botrytis cinerea               0
 2  CS(=O)(=O)c1nnc(C(F)(F)F)s1 [Compound 1]  Botrytis cinerea               0
 3  CCCCCCC[S+]([O-])c1nnc(C(Cl)(Cl)Cl)s1 (stereo not drawn) [Compound 13]  Botrytis cinerea              13
 4  CS(=O)(=O)c1nnc(C(Cl)(Cl)Cl)s1 [Compound 21]  Botrytis cinerea               0
 5  CC[S+]([O-])c1nnc(C(Cl)(Cl)Cl)s1 (stereo not drawn) [Compound 9]  Botrytis cinerea               0
 6  CCCS(=O)(=O)c1nnc(C(Cl)Cl)s1 [Compound 19]  Botrytis cinerea               0
 7  CS(=O)(=O)c1nnc(C(Br)Br)s1 [Compound 32]  Botrytis cinerea               0
 8  CCCCCCCS(=O)(=O)c1nnc(C(Cl)(Cl)Cl)s1 [Compound 28]  Botrytis cinerea               0
 9  CC(C)S(=O)(=O)c1nnc(C(Cl)(Cl)Cl)s1 [Compound 24]  Botrytis cinerea               0
10  CCS(=O)(=O)c1nnc(C(Cl)Cl)s1 [Compound 18]  Botrytis cinerea              13
11  CCCCCCS(=O)(=O)c1nnc(C(Cl)(Cl)Cl)s1 [Compound 27]  Botrytis cinerea               0
12  CCCCCCCCS(=O)(=O)c1nnc(C(Cl)(Cl)Cl)s1 [Compound 29]  Botrytis cinerea              18
13  CCCCC[S+]([O-])c1nnc(C(Cl)Cl)s1 (stereo not drawn) [Compound 7]  Botrytis cinerea              22
14  CCCC[S+]([O-])c1nnc(C(Cl)(Cl)Cl)s1 (stereo not drawn) [Compound 12]  Botrytis cinerea               0
15  S=C([S-])NCCNC(=S)[S-].[Zn+2] [Zinc ethylene-bis-dithiocarbamate, zinc-ethylene-bis-dithiocarbamate, reference compound]  Botrytis cinerea              36

---

- Tested on: Asperqilus niger
- Experiment description: Agar test (Example 7), Aspergillus
- Format: cell-based
- Experimental context: 10 ppm; 5 days at 22° C; control 100
Attribute measured: diameter of the colonies (mm)

> print(dat)
                                   compound   target.of.assay  reported.value
1  C[S+]([O-])c1nnc(C(Cl)(Cl)Cl)s1 (stereo not drawn) [Compound 8]  Asperqilus niger               0
2  CCCS(=O)(=O)c1nnc(C(Cl)(Cl)Cl)s1 [Compound 23]  Asperqilus niger               0
3  CS(=O)(=O)c1nnc(C(Cl)(Cl)Cl)s1 [Compound 21]  Asperqilus niger               0
